- Tested on: HL-60(TB) leukemia
- protocol.text: NCI tumour cell line growth inhibition, 48 h
endpoint: TGI (µM)
Answers are plain numbers, in µM.

Past entries and their recorded results:
molecule=S=C=NCCc1ccccc1 unit_abbrev=µM experimental_result=2.65
molecule=Cc1c(C(N)=O)sc2c1c(=O)n(Cc1ccccc1)c1nnc(-c3ccc(Br)cc3)n21 unit_abbrev=µM experimental_result=38.8
molecule=C[C@@H]1COCCN1c1cc(C2([S@@](C)(=N)=O)CC2)nc(-c2ccnc3[nH]ccc23)n1 unit_abbrev=µM experimental_result=41.5

Look up TGI for the entries below, preserving their order.
1. O=C1c2ccccc2C(=O)c2sc(Nc3ccccc3Cl)nc21
2. O=C(Nc1cc(Oc2cc(F)c(NC(=O)C3(C(=O)Nc4ccc(F)cc4)CC3)cc2F)ccn1)C1CC1
3. Cc1ccc(-c2nc([P+](c3ccccc3)(c3ccccc3)c3ccccc3)c(Nc3ccccc3)o2)cc1
4. COc1cc(C2C3=C(COC3=O)N(CCO)c3cc4c(cc32)OCO4)cc(OC)c1O (configuration not stated)
5. COc1ccc(C2C=C(c3ccc(Cl)cc3)N=C3SC=C(C)N32)c(Br)c1 (configuration not stated)

4.18
5.6
1.3
3.26
51.5

Look up TGI for the entries below, preserving their order.
1. COc1cccc(C2C3=C(COC3=O)N(CCO)c3cc4c(cc32)OCO4)c1 (configuration not stated)
2. C#COc1cccc(Nc2ncnc3cc(NC(=O)[C@H](C)Cl)ccc23)c1
3. COc1ccc(Cn2cc3c(c2-c2ccccc2)CCc2cnoc2-3)cc1N
4. Oc1[nH]c2ccccc2c1N=Nc1c(F)c(F)c(F)c(F)c1F

0.352
3.19
0.617
9.15

* * *

- Tested on: SN12C renal
- protocol.text: NCI tumour cell line growth inhibition, 48 h
I'd be grateful if you could share measured TGI for these entries.

Past entries and their recorded results:
compound=CCCN(CCC)c1c([N+](=O)[O-])cc(C(=O)N(CCO)CCO)cc1[N+](=O)[O-] endpoint=TGI experimental_result="> 100 µM"
compound="CC1(C)CCCCCC(C)(CCCO)C1=O (stereo not given)" endpoint=TGI experimental_result="> 100 µM"
compound=O=S(=O)(Nc1ccc(F)c(Cl)c1)c1ccc(-c2cnc(C3CC3)o2)cc1 endpoint=TGI experimental_result="10.8 µM"
compound=O=S(=O)(O)c1ccc2c(N=Nc3ccc(Cl)cc3)c(O)ccc2c1 endpoint=TGI experimental_result="> 100 µM"
compound=CCOC(=O)CN1CC(C2=C(O)CN(CC(=O)OCC)C2=O)=CC1=O endpoint=TGI experimental_result="> 100 µM"

Look up TGI for the entries below, preserving their order.
1. COc1cc(-n2ccnc2)cc(OC)c1OC
2. COc1ccc(C2C3CCCC(C3=O)C(c3ccc(OC)cc3)N2N=O)cc1 (stereo not given)
3. O=C1c2ccccc2C(=O)c2sc(Nc3ccccc3Cl)nc21
4. COc1ccc(C(CC(=O)c2ccccc2)C(C(=O)c2ccccc2)C(c2ccc(OC)cc2)C2C(=O)NC(=S)NC2=O)cc1 (stereo not given)
5. C=CCN(c1cc(OC)c2[nH]c(C(=O)OCC)c(C)c2c1[N+](=O)[O-])S(C)(=O)=O

1: > 100 µM; 2: 39.2 µM; 3: 21.1 µM; 4: 45.2 µM; 5: 56.1 µM

Data origin, for the record: PubChem BioAssay (NCI)
